Listing of entries alongside the reported AUC.
- Species on record: Rattus norvegicus
- Measurement Protocol: The AUC(0-infinity) values in female wistar rats.
- Assay type: ADME, organism-based
- Parameters: time infinity
- Condition Description: in vivo
Numbers only; they are read as ng·h/mL.

Molecule	AUC, ng·h/mL
Cc1c(C)c2c(c(C)c1OCc1ccccc1)C(CN1CCC[C@H]1COc1ccc(/C=C3\SC(=O)NC3=O)cc1)C(C)(C)O2 (some centres not stated)	23600

Input line: // returns reported AUC for input Cc1c(C)c2c(c(C)c1O)CCC(C)(COc1ccc(CC3SC(=O)NC3=O)cc1)O2 (configuration not stated)
Output line: 27400

====

- Measurement Protocol: The half life period in female wistar rats.
- Type: ADME, organism-based
- Condition Description: rat, in vivo
# half-life annotations
Record the value in h, omitting the unit from your answer.

Compound	Assay Result
Cc1c(C)c2c(c(C)c1OCc1ccccc1)C(CN1CCC[C@H]1COc1ccc(/C=C3\SC(=O)NC3=O)cc1)C(C)(C)O2 (some centres not stated)	13.1

Here's the next entry for you.
Input line: Quick one: half-life of Cc1c(C)c2c(c(C)c1O)CCC(C)(COc1ccc(CC3SC(=O)NC3=O)cc1)O2 (configuration not stated) ?
Output line: 4.01

====

- Target Entity: Peroxisome proliferator-activated receptor gamma (Homo sapiens) (UniProt P37231)
- Sequence (P37231 whole entry, the tested form may be a part): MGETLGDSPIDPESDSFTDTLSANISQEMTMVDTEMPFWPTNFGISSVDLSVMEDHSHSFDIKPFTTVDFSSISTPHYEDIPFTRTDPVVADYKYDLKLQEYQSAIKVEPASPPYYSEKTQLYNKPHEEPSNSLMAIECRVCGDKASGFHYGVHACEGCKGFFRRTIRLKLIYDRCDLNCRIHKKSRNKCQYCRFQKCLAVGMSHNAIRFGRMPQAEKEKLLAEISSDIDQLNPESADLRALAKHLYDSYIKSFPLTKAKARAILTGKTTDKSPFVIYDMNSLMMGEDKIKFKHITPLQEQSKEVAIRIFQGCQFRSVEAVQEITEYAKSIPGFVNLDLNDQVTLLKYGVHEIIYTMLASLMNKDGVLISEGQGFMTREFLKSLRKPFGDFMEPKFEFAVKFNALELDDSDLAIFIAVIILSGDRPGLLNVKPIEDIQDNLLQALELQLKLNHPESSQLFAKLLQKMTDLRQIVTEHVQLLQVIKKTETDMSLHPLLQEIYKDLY
- Measurement Protocol: The fold activation against 1 amino acids 174-475)
Readout Label: Fold activation
Lab note: jot the number down without any unit.

Some solved entries appear below for comparison.
Compound	Fold activation
Cc1c(C)c2c(c(C)c1O)C(CN1CCC[C@H]1COc1ccc(CC3SC(=O)NC3=O)cc1)C(C)(C)O2 (some centres undefined)	1.21
Cc1c(C)c2c(c(C)c1O)C(CN1CCC[C@H]1COc1ccc(/C=C3\SC(=O)NC3=O)cc1)C(C)(C)O2 (some centres undefined)	0.84
Cc1c(C)c2c(c(C)c1OCc1ccccc1)C(CN1CCC[C@H]1COc1ccc(/C=C3\SC(=O)NC3=O)cc1)C(C)(C)O2 (some centres undefined)	1.03

Attention now shifts to the item below.
Input line: Notebook: pull reported Fold activation for Peroxisome proliferator-activated receptor gamma (Homo sapiens) (UniProt P37231), entry Cc1c(C)c2c(c(C)c1OCc1ccccc1)C(CN1CCC[C@H]1COc1ccc(CC3SC(=O)NC3=O)cc1)C(C)(C)O2 (some centres undefined)
Output line: 0.17

====

- Measurement Protocol: Pharmacokinetic Parameter, AUC (0-t) is the area under the plasma concentration versus time curve in Female Wistar Rats at 100 mg/kg by po administration
- Assay type: ADME, organism-based
- Design: dose 100 mg/kg, route oral
- Condition Description: rat
Readout Label: AUC(0-t)

# example entries with known answers
Compound	AUC(0-t)
Cc1c(C)c2c(c(C)c1OCc1ccccc1)C(CN1CCC[C@H]1COc1ccc(/C=C3\SC(=O)NC3=O)cc1)C(C)(C)O2.O=C(O)/C=C\C(=O)O (stereo partly drawn)	53800 ng·h/mL
Cc1c(C)c2c(c(C)c1OCc1ccccc1)C(CN1CCC[C@H]1COc1ccc(/C=C3\SC(=O)NC3=O)cc1)C(C)(C)O2 (stereo partly drawn)	15500 ng·h/mL

Then there is this compound:
Input line: AUC(0-t) for Cc1c(C)c2c(c(C)c1O)CCC(C)(COc1ccc(CC3SC(=O)NC3=O)cc1)O2 (stereo not drawn) ?
Output line: 25900 ng·h/mL
